experiment: CREB reporter modulators under forskolin, primary screen, cell-based, PC12, CRE-LacZ reporter, forskolin-stimulated (AID 1146); conditions: luminescence, 4.5 h, higher = more signal, called active from +8 up or from −8 down;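 note: PC12 cells with 6xCRE LacZ reporter stimulated by forskolin 10 µM; beta-galactosidase reporter signal reflecting CREB driven transcription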
readout_kind: z-score

# molecule, observed_value
data = [
    ("C=CC[C@@H]1C=C[C@H](ON=C(C)CCN2CCCCc3nc(C)c(C)cc32)[C@@H](CO)O1", 0.578),
    ("COC(=O)[C@H](C)NC(=O)CCC1CC(OC(=O)NCCc2ccc(F)cc2)CC2(CCCC(COC(=O)NCc3ccccc3)O2)O1 (some centres not stated)", 0.833),
    ("CC(=O)OC[C@H]1O[C@@H](ON=C(C)C)[C@H](OC(C)=O)[C@@H](OC(C)=O)[C@@H]1OC(C)=O", 0.101),
    ("COc1ccc(O[C@H]2C=C[C@@H](C#Cc3ccccc3)O[C@@H]2CO)cc1", -0.003),
    ("CCOC(=O)CCN1C(=O)[C@H]2[C@H]3[C@H](O)[C@H](O)CC(=NO[C@@H]4O[C@H](CO)[C@@H](O)[C@H](O)[C@H]4O)[C@H]3CC[C@H]2C1=O", 0.497),
    ("COc1ccc(COC(=O)NN=C2C[C@@H](O)[C@@H](O)[C@@H]3[C@@H]4C(=O)N(C[C@@H]5CCCO5)C(=O)[C@@H]4CC[C@H]23)cc1", -0.166),
    ("CCOC(=O)[C@H](Cc1ccccc1)NC(=O)CCC1CC(OC(=O)NCc2ccc3c(c2)OCO3)CC2(CCCC(COC(=O)NCCOc3ccccc3)O2)O1 (some centres not stated)", -0.361),
]
